assay: activity coefficient (dimensionless); of the first substance listed, at infinite dilution; xn = mol fraction of the nth substance listed; details: 358.15 K; 101.33 kPa; Liquid; Chromatography; x1 = 0

- compound: "C1CCCCCCC1 [cyclooctane] + CCCC[P+](CCCC)(CCCC)CCCC.O=S(=O)([N-]S(=O)(=O)C(F)(F)F)C(F)(F)F"
  activity coefficient: 4.08
- compound: "CC#N [acetonitrile] + CCCC[P+](CCCC)(CCCC)CCCC.O=S(=O)([N-]S(=O)(=O)C(F)(F)F)C(F)(F)F"
  activity coefficient: 0.602
- compound: "Cc1ccccc1 [toluene] + CCCC[P+](CCCC)(CCCC)CCCC.O=S(=O)([N-]S(=O)(=O)C(F)(F)F)C(F)(F)F"
  activity coefficient: 1.11
- compound: "CCCCCCC [heptane] + CCCC[P+](CCCC)(CCCC)CCCC.O=S(=O)([N-]S(=O)(=O)C(F)(F)F)C(F)(F)F"
  activity coefficient: 5.4
- compound: "C=COC(C)=O [vinyl acetate] + CCCC[P+](CCCC)(CCCC)CCCC.O=S(=O)([N-]S(=O)(=O)C(F)(F)F)C(F)(F)F"
  activity coefficient: 0.983
- compound: "CCCCCC [hexane] + CCCC[P+](CCCC)(CCCC)CCCC.O=S(=O)([N-]S(=O)(=O)C(F)(F)F)C(F)(F)F"
  activity coefficient: 4.39
- compound: "C=CCCCCCC [oct-1-ene] + CCCC[P+](CCCC)(CCCC)CCCC.O=S(=O)([N-]S(=O)(=O)C(F)(F)F)C(F)(F)F"
  activity coefficient: 4.9
- compound: "C#CCCCCCC [1-octyne] + CCCC[P+](CCCC)(CCCC)CCCC.O=S(=O)([N-]S(=O)(=O)C(F)(F)F)C(F)(F)F"
  activity coefficient: 2.79
- compound: "CCOC(C)(C)C [2-ethoxy-2-methylpropane] + CCCC[P+](CCCC)(CCCC)CCCC.O=S(=O)([N-]S(=O)(=O)C(F)(F)F)C(F)(F)F"
  activity coefficient: 2.72
- compound: "CCOC(C)=O [ethyl acetate] + CCCC[P+](CCCC)(CCCC)CCCC.O=S(=O)([N-]S(=O)(=O)C(F)(F)F)C(F)(F)F"
  activity coefficient: 0.835
- compound: "CCCCCCCCC [nonane] + CCCC[P+](CCCC)(CCCC)CCCC.O=S(=O)([N-]S(=O)(=O)C(F)(F)F)C(F)(F)F"
  activity coefficient: 8.31
- compound: "C=Cc1ccccc1 [styrene] + CCCC[P+](CCCC)(CCCC)CCCC.O=S(=O)([N-]S(=O)(=O)C(F)(F)F)C(F)(F)F"
  activity coefficient: 1.01
- compound: "C1COCCO1 [1,4-dioxane] + CCCC[P+](CCCC)(CCCC)CCCC.O=S(=O)([N-]S(=O)(=O)C(F)(F)F)C(F)(F)F"
  activity coefficient: 0.795
- compound: "CCCCCCCC [octane] + CCCC[P+](CCCC)(CCCC)CCCC.O=S(=O)([N-]S(=O)(=O)C(F)(F)F)C(F)(F)F"
  activity coefficient: 6.69

* * *

assay: activity coefficient (dimensionless); of the first substance listed, at infinite dilution; xn = mol fraction of the nth substance listed; conditions: 368.15 K; 101.33 kPa; Liquid; Chromatography; x1 = 0

- molecule: "CCCOCCC [dipropyl ether] + CCCC[P+](CCCC)(CCCC)CCCC.O=S(=O)([N-]S(=O)(=O)C(F)(F)F)C(F)(F)F"
  activity coefficient: 2.78
- molecule: "CC(C)c1ccccc1 [isopropylbenzene] + CCCC[P+](CCCC)(CCCC)CCCC.O=S(=O)([N-]S(=O)(=O)C(F)(F)F)C(F)(F)F"
  activity coefficient: 1.97
- molecule: "CCCCCCCCCC [decane] + CCCC[P+](CCCC)(CCCC)CCCC.O=S(=O)([N-]S(=O)(=O)C(F)(F)F)C(F)(F)F"
  activity coefficient: 10.1
- molecule: "C1CCCCCCC1 [cyclooctane] + CCCC[P+](CCCC)(CCCC)CCCC.O=S(=O)([N-]S(=O)(=O)C(F)(F)F)C(F)(F)F"
  activity coefficient: 4.04
- molecule: "C1CCCCCC1 [cycloheptane] + CCCC[P+](CCCC)(CCCC)CCCC.O=S(=O)([N-]S(=O)(=O)C(F)(F)F)C(F)(F)F"
  activity coefficient: 3.41
- molecule: "C#CCCCCCC [1-octyne] + CCCC[P+](CCCC)(CCCC)CCCC.O=S(=O)([N-]S(=O)(=O)C(F)(F)F)C(F)(F)F"
  activity coefficient: 2.87
- molecule: "CCC[N+](=O)[O-] [1-nitropropane] + CCCC[P+](CCCC)(CCCC)CCCC.O=S(=O)([N-]S(=O)(=O)C(F)(F)F)C(F)(F)F"
  activity coefficient: 0.708

* * *

assay: activity coefficient (dimensionless); of the first substance listed, at infinite dilution; xn = mol fraction of the nth substance listed; details: 408.15 K; 101.33 kPa; Liquid; Chromatography; x1 = 0

- compound: "CCCCCCCC [octane] + CCCC[P+](CCCC)(CCCC)CCCC.O=S(=O)([N-]S(=O)(=O)C(F)(F)F)C(F)(F)F"
  activity coefficient: 6.39
- compound: "C#CCCCCCC [1-octyne] + CCCC[P+](CCCC)(CCCC)CCCC.O=S(=O)([N-]S(=O)(=O)C(F)(F)F)C(F)(F)F"
  activity coefficient: 3.13
- compound: "c1ccsc1 [thiophene] + CCCC[P+](CCCC)(CCCC)CCCC.O=S(=O)([N-]S(=O)(=O)C(F)(F)F)C(F)(F)F"
  activity coefficient: 0.929
- compound: "CCC(C)O (centres undefined) [butan-2-ol] + CCCC[P+](CCCC)(CCCC)CCCC.O=S(=O)([N-]S(=O)(=O)C(F)(F)F)C(F)(F)F"
  activity coefficient: 1.37

* * *

experiment: activity coefficient (dimensionless); of the first substance listed, at infinite dilution; xn = mol fraction of the nth substance listed; settings: 378.15 K; 101.33 kPa; Liquid; Chromatography; x1 = 0
Threshold 1: activity coefficient strictly smaller gives Y, otherwise N.

- molecule: "CCO [ethanol] + CCCC[P+](CCCC)(CCCC)CCCC.O=S(=O)([N-]S(=O)(=O)C(F)(F)F)C(F)(F)F"
  assigned-class: "N"
- molecule: "CCCCCO [pentan-1-ol] + CCCC[P+](CCCC)(CCCC)CCCC.O=S(=O)([N-]S(=O)(=O)C(F)(F)F)C(F)(F)F"
  assigned-class: "N"
- molecule: "CCC(C)O (configuration not stated) [butan-2-ol] + CCCC[P+](CCCC)(CCCC)CCCC.O=S(=O)([N-]S(=O)(=O)C(F)(F)F)C(F)(F)F"
  assigned-class: "N"
- molecule: "Cc1ccccc1 [toluene] + CCCC[P+](CCCC)(CCCC)CCCC.O=S(=O)([N-]S(=O)(=O)C(F)(F)F)C(F)(F)F"
  assigned-class: "N"
- molecule: "CCC(=O)CC [pentan-3-one] + CCCC[P+](CCCC)(CCCC)CCCC.O=S(=O)([N-]S(=O)(=O)C(F)(F)F)C(F)(F)F"
  assigned-class: "Y"
- molecule: "COC(C)=O [methyl ethanoate] + CCCC[P+](CCCC)(CCCC)CCCC.O=S(=O)([N-]S(=O)(=O)C(F)(F)F)C(F)(F)F"
  assigned-class: "Y"
- molecule: "CCC[N+](=O)[O-] [1-nitropropane] + CCCC[P+](CCCC)(CCCC)CCCC.O=S(=O)([N-]S(=O)(=O)C(F)(F)F)C(F)(F)F"
  assigned-class: "Y"

* * *

assay: activity coefficient (dimensionless); of the first substance listed, at infinite dilution; xn = mol fraction of the nth substance listed; details: 398.15 K; 101.33 kPa; Liquid; Chromatography; x1 = 0
Answer Not satisfied if activity coefficient is under 1, and Satisfied if it is 1 or more.

- compound: "CCCC=O [butanal] + CCCC[P+](CCCC)(CCCC)CCCC.O=S(=O)([N-]S(=O)(=O)C(F)(F)F)C(F)(F)F"
  assigned-class: "Not satisfied"
- compound: "C=C(C)c1ccccc1 [(1-methylethenyl)benzene] + CCCC[P+](CCCC)(CCCC)CCCC.O=S(=O)([N-]S(=O)(=O)C(F)(F)F)C(F)(F)F"
  assigned-class: "Satisfied"
- compound: "C1=CCCCC1 [cyclohexene] + CCCC[P+](CCCC)(CCCC)CCCC.O=S(=O)([N-]S(=O)(=O)C(F)(F)F)C(F)(F)F"
  assigned-class: "Satisfied"
- compound: "CCO [ethanol] + CCCC[P+](CCCC)(CCCC)CCCC.O=S(=O)([N-]S(=O)(=O)C(F)(F)F)C(F)(F)F"
  assigned-class: "Satisfied"
- compound: "CC(C)O [propan-2-ol] + CCCC[P+](CCCC)(CCCC)CCCC.O=S(=O)([N-]S(=O)(=O)C(F)(F)F)C(F)(F)F"
  assigned-class: "Satisfied"
- compound: "CCC(=O)OC [methyl propanoate] + CCCC[P+](CCCC)(CCCC)CCCC.O=S(=O)([N-]S(=O)(=O)C(F)(F)F)C(F)(F)F"
  assigned-class: "Not satisfied"
- compound: "CC(C)CO [2-methyl-1-propanol] + CCCC[P+](CCCC)(CCCC)CCCC.O=S(=O)([N-]S(=O)(=O)C(F)(F)F)C(F)(F)F"
  assigned-class: "Satisfied"
- compound: "C#CCCCCC [1-heptyne] + CCCC[P+](CCCC)(CCCC)CCCC.O=S(=O)([N-]S(=O)(=O)C(F)(F)F)C(F)(F)F"
  assigned-class: "Satisfied"
- compound: "CC(C)(C)O [2-methylpropan-2-ol] + CCCC[P+](CCCC)(CCCC)CCCC.O=S(=O)([N-]S(=O)(=O)C(F)(F)F)C(F)(F)F"
  assigned-class: "Satisfied"
- compound: "CCC(C)(C)C [2,2-dimethylbutane] + CCCC[P+](CCCC)(CCCC)CCCC.O=S(=O)([N-]S(=O)(=O)C(F)(F)F)C(F)(F)F"
  assigned-class: "Satisfied"
- compound: "C1CCOC1 [tetrahydrofuran] + CCCC[P+](CCCC)(CCCC)CCCC.O=S(=O)([N-]S(=O)(=O)C(F)(F)F)C(F)(F)F"
  assigned-class: "Not satisfied"
- compound: "c1ccsc1 [thiophene] + CCCC[P+](CCCC)(CCCC)CCCC.O=S(=O)([N-]S(=O)(=O)C(F)(F)F)C(F)(F)F"
  assigned-class: "Not satisfied"
- compound: "CCCCCO [pentan-1-ol] + CCCC[P+](CCCC)(CCCC)CCCC.O=S(=O)([N-]S(=O)(=O)C(F)(F)F)C(F)(F)F"
  assigned-class: "Satisfied"
